Measured IC50 (thrombin (Homo sapiens, UniProt P00734))

Solved cases (5 shown):
{"Query Smiles": "Cc1c(O)cccc1NC(=O)Cn1cc(C(=N)N)c2ccccc21", "Tgt": "thrombin (Homo sapiens, UniProt P00734)", "Recorded Endpoint": "IC50", "Observed Measurement": "> 200 µM"}
{"Query Smiles": "C[C@@H](CNC(=O)Cn1cc(C(=N)N)c2ccccc21)c1ccccc1", "Tgt": "thrombin (Homo sapiens, UniProt P00734)", "Recorded Endpoint": "IC50", "Observed Measurement": "> 200 µM"}
{"Query Smiles": "N=C(N)c1cn(CC(=O)Nc2cccnc2)c2c(Br)cccc12", "Tgt": "thrombin (Homo sapiens, UniProt P00734)", "Recorded Endpoint": "IC50", "Observed Measurement": "> 200 µM"}
{"Query Smiles": "N=C(N)c1cn(-c2ccccc2[N+](=O)[O-])c2ccccc12", "Tgt": "thrombin (Homo sapiens, UniProt P00734)", "Recorded Endpoint": "IC50", "Observed Measurement": "224 µM"}
{"Query Smiles": "N=C(N)c1cn(-c2cc(Cl)ccc2[N+](=O)[O-])c2c(C(=O)Nc3cccnc3)cccc12", "Tgt": "thrombin (Homo sapiens, UniProt P00734)", "Recorded Endpoint": "IC50", "Observed Measurement": "> 200 µM"}

Note to self: IC50 of COC(=O)c1ccc(NC(=O)Cn2cc(C(=N)N)c3cccc(C(=O)NCc4ccc(O)c(O)c4)c32)cc1 with thrombin (Homo sapiens, UniProt P00734) was 4.2 µM

With thrombin (Homo sapiens, UniProt P00734) as the test system, N=C(N)c1cn(CC(=O)Nc2cccnc2)c2c(/C=C/C(N)=O)cccc12 showed IC50 of > 200 µM

---

Observed IC50 for factor XIa (Homo sapiens), reported per entry below.
Recorded Endpoint: IC50 (nM)

Below are worked cases with known answers.
{"Compound": "N=C(N)c1cn(C(=CC(=O)N2CCNCC2)c2ccccc2)c2ccccc12 [Compound 101]", "Observed Measurement": 6270}
{"Compound": "N=C(N)c1cn(CC(=O)Nc2cccnc2)c2c(Br)cccc12 [Compound 8]", "Observed Measurement": 620}
{"Compound": "N=C(N)c1cn(CC(=O)Nc2cccnc2)c2c(C(N)=O)cccc12 [Compound 84]", "Observed Measurement": 1470}
{"Compound": "COC(=O)c1ccc(-c2cccnc2)cc1-n1cc(C(=N)N)c2ccccc21 [Compound 139]", "Observed Measurement": 3800}

[A] N=C(N)c1cn(CC(=O)Nc2ccc(C(=O)O)cc2)c2c(C=CC(=O)NC(Cc3ccc(O)cc3)C(=O)O)cccc12 (centres unmarked) [Compound 70]
[B] N=C(N)c1cn(-c2ccccc2[N+](=O)[O-])c2ccccc12 [Compound 151]
[C] N=C(N)c1cn(CC(=O)Nc2ccc3ncccc3c2)c2c(Br)cccc12 [Compound 34]
[D] N=C(N)c1cn(CC(=O)Nc2cccnc2)c2cc(CCC(N)=O)ccc12 [Compound 40]
Rank by IC50 (largest to smallest). To answer, write out the labels according to the requested order.
D, B, C, A

---

factor XIa (Homo sapiens, UniProt P03951) measurements of IC50, listed per entry.
Sequence (P03951 388-625 limits assumed): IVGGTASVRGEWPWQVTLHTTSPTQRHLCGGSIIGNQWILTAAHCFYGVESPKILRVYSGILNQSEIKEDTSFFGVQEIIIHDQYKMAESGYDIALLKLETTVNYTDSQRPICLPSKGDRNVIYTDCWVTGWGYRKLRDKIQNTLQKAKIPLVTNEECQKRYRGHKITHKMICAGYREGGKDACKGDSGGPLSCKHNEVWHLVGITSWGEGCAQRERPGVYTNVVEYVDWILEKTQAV
Recorded Endpoint: IC50 (µM)

[a] C[C@@H](CNC(=O)Cn1cc(C(=N)N)c2ccccc21)c1ccccc1 [Compound 5]
[b] COC(=O)c1ccc(-c2cccc(O)c2)cc1-n1cc(C(=N)N)c2ccccc21 [Compound 135]
Pick one, a or b : lowest reported IC50. Write the label of whichever entry you select.
b

---

Read-out record for UniProt P03951: IC50
Recorded Endpoint: IC50 (µM)

Take a look at these entries with their results.
{"Compound": "N=C(N)c1cn(CC(=O)Nc2cccnc2)c2c(-c3cccc(O)c3)cccc12", "Tgt": "UniProt P03951", "Observed Measurement": 8.09}
{"Compound": "N=C(N)c1cn(CC(=O)Nc2ccc(C(=O)O)cc2)c2c(/C=C/C(=O)N[C@H](C(=O)O)c3ccccc3)cccc12", "Tgt": "UniProt P03951", "Observed Measurement": 0.093}

[a] Cc1c(O)cccc1NC(=O)Cn1cc(C(=N)N)c2ccccc21
[b] COC(=O)c1ccc(NC(=O)c2cccnc2)cc1-n1cc(C(=N)N)c2ccccc21
[c] N=C(N)c1cn(-c2cc(Cl)ccc2[N+](=O)[O-])c2c(C(=O)Nc3cccnc3)cccc12
[d] CCOC(=O)C1CCCN(C(=O)Cn2cc(C(=N)N)c3cccc(C(=O)N4CCCC(C(=O)OCC)C4)c32)C1 (stereo not drawn)
Please put the entries in order of rising IC50. Write the labels, ordered according to the request.
c, d, b, a

FYI, the data here is from patent US20080146811A1.
